# System: rat cortical neurons
# procedure-text: Neurite outgrowth in primary neuronal cultures assay
# Format: cell-based
# Parameters: key: A: Statistically significant mean increase as a percent of DMSO control at 10 μM or less; B: No statistically significant mean increase as a percent of DMSO control at 10 μM or less
# condition-context: 72h, vs DMSO control, 10 μM or less
measured-attribute: INCREASE IN NEURITE NUMBER

COc1cccc2[nH]c3c(c12)C[C@H]1CCCN1CC3 = A
COc1ccc2c3c([nH]c2c1)CC1CCCN1CC3 (stereo not drawn) = B
c1ccc2c3c([nH]c2c1)C[C@H]1CCCN1CC3 = A
Cn1c2c(c3ccccc31)CC1CCCN1CC2 (stereo not drawn) = B
COc1cccc2[nH]c3c(c12)C[C@@H]1CCCN1CC3 = A
c1ccc2c3c([nH]c2c1)CCN1CCC[C@H]1C3 = A
COc1ccc2c3c([nH]c2c1)CCN1CCC[C@H]1C3 = A
Cn1c2c(c3ccccc31)CCN1CCCC1C2 (stereo not drawn) = B
COc1ccc2c3c([nH]c2c1)CCN1CCC[C@@H]1C3 = A
c1ccc2c3c([nH]c2c1)CC1CCCN1CC3 (stereo not drawn) = A
COc1cccc2[nH]c3c(c12)CC1CCCN1CC3 (stereo not drawn) = B
COc1ccc2c3c([nH]c2c1)C[C@H]1CCCN1CC3 = A
c1ccc2c3c([nH]c2c1)C[C@@H]1CCCN1CC3 = A
FC(F)(F)c1cccc2[nH]c3c(c12)CCN1CCCC1C3 (stereo not drawn) = B
c1ccc2c3c([nH]c2c1)CCN1CCC[C@@H]1C3 = A
c1ccc2c3c([nH]c2c1)CCN1CCCC1C3 (stereo not drawn) = A
COc1ccc2c3c([nH]c2c1)CCN1CCCC1C3 (stereo not drawn) = B
FC(F)(F)c1ccc2c3c([nH]c2c1)CC1CCCN1CC3 (stereo not drawn) = B
FC(F)(F)c1cccc2[nH]c3c(c12)CC1CCCN1CC3 (stereo not drawn) = A
COc1ccc2c3c([nH]c2c1)C[C@@H]1CCCN1CC3 = A
FC(F)(F)Oc1ccc2c3c([nH]c2c1)CC1CCCN1CC3 (stereo not drawn) = B

###

# Test system: rat cortical neurons
# procedure-text: Neurite outgrowth in primary neuronal cultures assay
# Format: cell-based
# Set-up: key: A: Statistically significant mean increase as a percent of DMSO control at 10 μM or less; B: No statistically significant mean increase as a percent of DMSO control at 10 μM or less
# condition-context: 72h, vs DMSO control, 10 μM or less
measured-attribute: INCREASE IN NEURITE BRANCHING

FC(F)(F)Oc1ccc2c3c([nH]c2c1)CC1CCCN1CC3 (stereo not shown) = B
Cn1c2c(c3ccccc31)CC1CCCN1CC2 (stereo not shown) = B
COc1cccc2[nH]c3c(c12)C[C@@H]1CCCN1CC3 = A
COc1cccc2[nH]c3c(c12)CC1CCCN1CC3 (stereo not shown) = B
FC(F)(F)c1cccc2[nH]c3c(c12)CC1CCCN1CC3 (stereo not shown) = A
c1ccc2c3c([nH]c2c1)CCN1CCCC1C3 (stereo not shown) = A
FC(F)(F)c1ccc2c3c([nH]c2c1)CC1CCCN1CC3 (stereo not shown) = A
c1ccc2c3c([nH]c2c1)C[C@@H]1CCCN1CC3 = A
COc1cccc2[nH]c3c(c12)C[C@H]1CCCN1CC3 = A
COc1ccc2c3c([nH]c2c1)C[C@H]1CCCN1CC3 = A

###

# Tested on: rat cortical neurons
# procedure-text: Neurite outgrowth in primary neuronal cultures assay
# Assay type: cell-based
# Design: key: A: Statistically significant mean increase as a percent of DMSO control at 10 μM or less; B: No statistically significant mean increase as a percent of DMSO control at 10 μM or less
# condition-context: 72h, vs DMSO control, 10 μM or less
measured-attribute: INCREASE IN NEURITE BRANCHING

c1ccc2c3c([nH]c2c1)CC1CCCN1CC3 (stereo not drawn) = A
c1ccc2c3c([nH]c2c1)C[C@H]1CCCN1CC3 = A
COc1ccc2c3c([nH]c2c1)C[C@@H]1CCCN1CC3 = A
c1ccc2c3c([nH]c2c1)CCN1CCC[C@H]1C3 = A
COc1ccc2c3c([nH]c2c1)CCN1CCC[C@@H]1C3 = A
Cn1c2c(c3ccccc31)CCN1CCCC1C2 (stereo not drawn) = B
